Molecular target: human α2C receptor (Homo sapiens)
Construct: expressed in transfected cells; host or cells: CHO cells, also recombinantly expressing chimeric G protein Gαqi3 and mitochondrial obelin (mtOb)
Sequence (P18825 whole entry): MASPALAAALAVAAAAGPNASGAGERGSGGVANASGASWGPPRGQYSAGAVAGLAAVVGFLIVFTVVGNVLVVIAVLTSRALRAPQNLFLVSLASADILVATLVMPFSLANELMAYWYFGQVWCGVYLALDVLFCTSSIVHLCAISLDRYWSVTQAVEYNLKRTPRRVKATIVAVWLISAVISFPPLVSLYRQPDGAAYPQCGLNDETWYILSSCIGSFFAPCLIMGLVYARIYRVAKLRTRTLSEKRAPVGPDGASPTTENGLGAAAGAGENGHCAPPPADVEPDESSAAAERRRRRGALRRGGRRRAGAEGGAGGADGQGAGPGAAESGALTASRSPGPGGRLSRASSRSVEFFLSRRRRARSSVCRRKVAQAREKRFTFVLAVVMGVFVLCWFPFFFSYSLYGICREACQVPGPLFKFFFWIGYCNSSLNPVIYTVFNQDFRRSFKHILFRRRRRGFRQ
Assay: Antagonism against the adrenoreceptor α2C (luminescence, recombinant CHO cell line)
Format: cell-based
Conditions: antagonism against adrenoreceptor α2C; noradrenaline 20 nM; tested up to 10 μM; read-out: IC50
Structures can show the parent of a compound that is named as a salt.
Kindly state pIC50 for each of the entries shown.
Quick note: pIC50 means taking -log10 of the concentration in moles per liter.

Req: Which pIC50 is reported for this compound? CC(C)(O)c1ccc(C(=O)N2CCC(N3CCCC(c4nc(C5CCC5)n[nH]4)C3)CC2)cc1 (centres unmarked)
Resp: 6.95

Req: Which pIC50 is reported for this compound? CC1CCCN(C2CCN(C(=O)c3ccc(C(C)(C)CO)cc3)CC2)C1 (centres unmarked) [Example 28, trifluoroacetic acid salt]
Resp: 6.81

Req: Which pIC50 is reported for this compound? CC1CCCN(C2CCN(C(=O)c3ccc(COc4ccccc4)cc3)CC2)C1 (centres unmarked)
Resp: 6.94

Req: Which pIC50 is reported for this compound? CCOC(=O)C1CCCN(C2CCN(C(=O)c3ccc(C(C)(C)O)cc3)CC2)C1 (centres unmarked)
Resp: 7.36

Req: Which pIC50 is reported for this compound? CC1CCCN(C2CCN(C(=O)c3ccc(C(=O)NC(C)(C)C)c(F)c3)CC2)C1 (centres unmarked)
Resp: 7.14

Req: Which pIC50 is reported for this compound? CC(C)(O)c1ccc(C(=O)N2CCC(N3CCCC(c4nc(CC5CCC5)n[nH]4)C3)CC2)cc1 (centres unmarked)
Resp: 7.60

Req: Which pIC50 is reported for this compound? "C[C@@H]1CCCN(C2CCN(C(=O)c3ccc(C(=O)NCc4ncccc4F)cc3)CC2)C1"
Resp: 7.57

Req: Which pIC50 is reported for this compound? C[C@@H]1CCCN(C2CCN(C(=O)c3ccc(C(=O)NC(CCO)c4ccccc4F)cc3)CC2)C1 (some centres unmarked) [Example 89, trifluoroacetic acid salt]
Resp: 7.77

Req: Which pIC50 is reported for this compound? CC1CCCN(C2CCN(C(=O)c3ccc(C(=O)NC(C)(C)c4cc(Cl)cc(Cl)c4)cc3)CC2)C1 (centres unmarked) [Example 80, trifluoroacetic acid salt]
Resp: 6.82

Req: Which pIC50 is reported for this compound? "CC1=C(C)CN(C2CCN(C(=O)c3ccc(C(=O)Nc4c(C)noc4C)cc3)CC2)CC1"
Resp: 8.05

Req: Which pIC50 is reported for this compound? CCOC(=O)Cc1ccc(C(=O)N2CCC(N3CCCC(C)C3)CC2)cc1 (centres unmarked) [Example 33, trifluoroacetic acid salt]
Resp: 6.30

Req: Which pIC50 is reported for this compound? CC1CCCN(C2CCN(C(=O)c3ccc(C4(CN(C)S(C)(=O)=O)CCC4)cc3)CC2)C1 (centres unmarked)
Resp: 7.74

Req: Which pIC50 is reported for this compound? Cc1cccnc1CNC(=O)c1ccc(C(=O)N2CCC(C3CCCC(C)C3)CC2)cc1 (centres unmarked) [Example 74, trifluoroacetic acid salt]
Resp: 6.81

Req: Which pIC50 is reported for this compound? CC1CCCN(C2CCN(C(=O)c3ccc(C(C)(C)C(=O)NC(C)(C)C)cc3F)CC2)C1 (centres unmarked)
Resp: 6.87

Req: Which pIC50 is reported for this compound? C[C@@H]1CCCN(C2CCN(C(=O)c3ccc(C(=O)NCc4cccc(OC(F)F)c4)cc3)CC2)C1 [Example 86, trifluoroacetic acid salt]
Resp: 6.74

Req: Which pIC50 is reported for this compound? CC1CCCN(C2CCN(C(=O)c3ccc(C4(CNC=O)CCC4)cc3)CC2)C1 (centres unmarked) [Example 66, hydrochloride]
Resp: 7.82

Req: Which pIC50 is reported for this compound? CC1CCCN(C2CCN(C(=O)c3ccc(-c4cnco4)cc3)CC2)C1 (centres unmarked)
Resp: 6.61

Req: Which pIC50 is reported for this compound? CC1CCCN(C2CCN(C(=O)c3ccc(C(=O)NC(C)(C)c4ccc(Cl)c(Cl)c4)cc3)CC2)C1 (centres unmarked) [Example 73, trifluoroacetic acid salt]
Resp: 7.10

Req: Which pIC50 is reported for this compound? CC1CCCN(C2CCN(C(=O)c3ccc(C(C)(C)O)cc3)CC2)C1 (centres unmarked) [Example 7]
Resp: 6.27

Req: Which pIC50 is reported for this compound? C[C@@H]1CCCN(C2CCN(C(=O)c3ccc(C(=O)NC(C)(C)C)cc3Cl)CC2)C1 [Example 101, formic acid salt]
Resp: 7.68

Req: Which pIC50 is reported for this compound? CC(C)(C)OCC1CCCN(C2CCN(C(=O)c3ccc(C(C)(C)O)cc3)CC2)C1 (centres unmarked)
Resp: 7.46

Req: Which pIC50 is reported for this compound? "C[C@@H]1CCCN(C2CCN(C(=O)c3ccc(C(C)(C)O)c(F)c3)CC2)C1"
Resp: 7.48

Req: Which pIC50 is reported for this compound? CC1CCCN(C2CCN(C(=O)c3ccc(C(=O)NCc4ccnc(Cl)c4)cc3)CC2)C1 (centres unmarked) [Example 75, trifluoroacetic acid salt]
Resp: 7.44
